measurement_protocol: chemical genetic growth profiling, strain panel (AID 1159580);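 note: tested at 20 µM; growth read once vehicle control cultures reached saturation at 30 °C; 1 = growth at the plate median or of vehicle wells; lower values mean less growth of the strain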
condition_info: S. cerevisiae deletion strains, growth OD, locus YMR078C, strain ctf18, active compounds read low
In all, about 5,500 compounds went through this assay and about 2,000 (36%) were called active. Inconclusive results (about 18%) are left out. The list shows a part of the results.
# label = Met if normalized growth < 1 else Not met

COC(=O)[C@]1(C)CC[C@]2(C)CC[C@]3(C)C4=CC=C5C(=CC(=O)C(O)=C5C)[C@]4(C)CC[C@@]3(C)[C@@H]2C1 : Met
O=c1[nH]cnc2c1ncn2C1O[C@H](CO)[C@@H](O)[C@H]1O (some centres undefined) : Not met
O=C(O)c1cc(=O)c2c(Cl)cc(Cl)cc2[nH]1 : Not met
O=C(OC[C@H]1O[C@H](OC(=O)c2cc(O)c(O)c(OC(=O)c3cc(O)c(O)c(O)c3)c2)[C@H](OC(=O)c2cc(O)c(O)c(OC(=O)c3cc(O)c(O)c(O)c3)c2)[C@@H](OC(=O)c2cc(O)c(O)c(OC(=O)c3cc(O)c(O)c(O)c3)c2)[C@@H]1OC(=O)c1cc(O)c(O)c(OC(=O)c2cc(O)c(O)c(O)c2)c1)c1cc(O)c(O)c(OC(=O)c2cc(O)c(O)c(O)c2)c1 : Met
O=c1oc2c(O)c(O)cc3c(=O)oc4c(O)c(O)cc1c4c23 : Met
CC1(C)S[C@@H]2[C@H](NC(=O)Cc3ccccc3)C(=O)N2[C@H]1C(=O)O : Not met
CC(=O)Oc1cc2c(c(C)c1OC(C)=O)CC1OC13C2(C)CCC1(C)C2CC(C)(C(=O)O)CCC2(C)CCC13C (centres undefined) : Not met
CC1(C)C(=O)[C@@H]2O[C@@H]2[C@@]2(C)C1CC(=O)[C@]1(C)C2CC[C@@]2(C)[C@H](c3ccoc3)OC(=O)[C@H]3O[C@]321 (some centres undefined) : Met

----------
Reported normalized growth is given for each of the following compounds.
measurement_protocol: chemical genetic growth profiling, strain panel (AID 1159580);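 note: tested at 20 µM; growth read once vehicle control cultures reached saturation at 30 °C; 1 = growth at the plate median or of vehicle wells; lower values mean less growth of the strain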
condition_info: S. cerevisiae deletion strains, growth OD, locus YNL298W, strain CLA4, active compounds read low
The whole screen tested about 5,500 compounds, of which about 2,000 (36%) were called active. Roughly 18% stayed inconclusive and do not appear here. The list shows a part of the results.
measured_parameter: normalized growth

CC[C@H]1OC(=O)[C@H](C)[C@@H](O[C@H]2C[C@@](C)(OC)[C@@H](O)[C@H](C)O2)[C@H](C)[C@@H](O[C@@H]2O[C@H](C)C[C@H](N(C)C)[C@H]2O)[C@](C)(O)C[C@@H](C)[C@@H]2N[C@@H](COCCOC)O[C@H]([C@H]2C)[C@]1(C)O : 1
NC(=O)N1c2ccccc2C=Cc2ccccc21 : 0.976
CCN(CC)CCNC(=O)c1cc(Cl)c(N)cc1OC : 1
NC(N)=NC(N)=Nc1ccccc1 : 0.993

----------
measurement_protocol: chemical genetic growth profiling, strain panel (AID 1159580);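 note: tested at 20 µM; growth read once vehicle control cultures reached saturation at 30 °C; 1 = growth at the plate median or of vehicle wells; lower values mean less growth of the strain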
condition_info: S. cerevisiae deletion strains, growth OD, locus YOR080W, strain dia2, active compounds read low
The campaign covered roughly 5,500 compounds. About 2,000 (36%) were called active. Another 18% or so got no clear call; they are omitted. The list shows a part of the results.
Reported normalized growth is given for each of the following molecules.
measured_parameter: normalized growth

CCNc1nc(Cl)nc(NCC)n1 : 0.998
CN1CCN(CC(=O)N2c3ccccc3C(=O)Nc3cccnc32)CC1 : 1.01
COc1ccc([C@H]2COc3c(ccc(O)c3OC)C2)c(OC)c1O : 0.988
CC(=O)O[C@@H]1CC[C@]2(C)C3CC[C@]4(C)C(=O)CCC4C3CC[C@H]2C1 (stereo not given in full) : 1.01
NC(N)=NC(N)=Nc1ccccc1 : 0.98
CC(=O)O[C@H]1CC[C@]2(C)C3CC(=O)[C@]4(C)C(C(C)=O)=CCC4C3CC[C@H]2C1 (stereo not given in full) : 1.01
C1CCC(C(CC2CCCCN2)C2CCCCC2)CC1 (stereo not given) : 0.988
CC(=O)O[C@H]1CC[C@]2(C)C3CC[C@@]4(C)C(CC5O[C@@]6(CCC(C)CO6)[C@@H](C)C54)C3CC[C@@H]2C1 (stereo not given in full) : 1.01
C[C@]12CCC3C(CC[C@H]4C[C@H](OS(=O)(=O)O)CC[C@]34C)C1CCC2=O (stereo not given in full) : 1.07
CC(=O)OC1CCC2(C)C3CC(=O)C4(C)C(CC5OC6(CCC(C)CO6)[C@@H](C)C54)C3CC[C@H]2C1 (stereo not given in full) : 0.974
